Ref: patent US8450305B2

# system: FAK (Homo sapiens, UniProt Q05397)
# Construct: host or cells: Sf9 insect cells (baculovirus)
# Sequence (Q05397 whole entry): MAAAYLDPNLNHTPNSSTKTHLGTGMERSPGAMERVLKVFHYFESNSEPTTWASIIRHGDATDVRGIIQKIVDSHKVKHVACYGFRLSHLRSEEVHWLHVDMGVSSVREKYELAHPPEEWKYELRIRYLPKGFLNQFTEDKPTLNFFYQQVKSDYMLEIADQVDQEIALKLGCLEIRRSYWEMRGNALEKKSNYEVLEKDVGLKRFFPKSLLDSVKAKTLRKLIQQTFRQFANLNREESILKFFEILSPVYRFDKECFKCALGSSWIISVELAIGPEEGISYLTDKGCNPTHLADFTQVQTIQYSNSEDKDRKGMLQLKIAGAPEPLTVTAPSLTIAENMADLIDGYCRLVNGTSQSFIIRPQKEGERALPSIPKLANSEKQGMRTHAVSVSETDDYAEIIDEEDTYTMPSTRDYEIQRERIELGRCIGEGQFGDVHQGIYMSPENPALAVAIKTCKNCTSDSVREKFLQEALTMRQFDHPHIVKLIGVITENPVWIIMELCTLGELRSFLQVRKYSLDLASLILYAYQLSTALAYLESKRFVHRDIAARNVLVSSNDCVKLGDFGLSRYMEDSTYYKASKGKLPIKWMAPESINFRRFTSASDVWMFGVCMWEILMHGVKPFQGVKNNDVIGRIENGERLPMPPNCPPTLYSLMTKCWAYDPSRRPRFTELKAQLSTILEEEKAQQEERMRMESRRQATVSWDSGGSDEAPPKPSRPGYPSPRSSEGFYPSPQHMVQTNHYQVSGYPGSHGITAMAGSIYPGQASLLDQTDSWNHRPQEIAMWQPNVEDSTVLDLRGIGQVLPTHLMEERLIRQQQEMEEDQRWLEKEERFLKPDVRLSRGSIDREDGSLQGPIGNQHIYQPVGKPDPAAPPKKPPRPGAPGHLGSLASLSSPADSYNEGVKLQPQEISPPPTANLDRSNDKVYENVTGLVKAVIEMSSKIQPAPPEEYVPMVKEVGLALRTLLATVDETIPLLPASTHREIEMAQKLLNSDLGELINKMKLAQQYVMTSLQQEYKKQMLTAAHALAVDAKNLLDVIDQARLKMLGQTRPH
# method-summary: Radiometric protein kinase assay, FAK
# Type: biochemical
# test-conditions: 1 μM ATP; read-out: Inhibitory activity (IC50:μM) FAK
# Description: All protein kinases were expressed in Sf9 insect cells as human recombinant GST-fusion proteins or His-tagged proteins by means of the baculovirus expression system. Kinases were purified by affinity chromatography using either GSH-agarose (Sigma) or Ni-NTH-agarose (Qiagen). […] The reaction cocktails were incubated at 30° C. for 80 minutes. […] Incorporation of ^33Pi was determined with a microplate scintillation counter (Microbeta Trilux, Wallac). […]
measured-quantity: IC50
Give the value; after it, write the unit.

Before answering, review these 3 worked examples.
> print(dat)
                                   molecule  measured.quantity  value.measured
1  O=C1Cc2c(Cl)c(O)cc(O)c2C(=O)O[C@H](c2ccccc2)C/C=C/CCC(Cl)C1 (some centres unmarked)               IC50            9 µM
2  O=C1/C=C/CCC2OC2C[C@@H](Cc2ccccc2)OC(=O)c2c(O)cc(O)cc2C1 (some centres unmarked)               IC50           34 µM
3  CC(C)[C@@H]1CC2OC2CC/C=C/C(=O)Cc2c(Cl)c(O)cc(O)c2C(=O)O1 (some centres unmarked)               IC50           37 µM

Return reported IC50 values for all items listed beneath this line.
1. COC1CC/C=C/C[C@H](c2ccccc2)OC(=O)c2c(O)cc(O)c(Cl)c2CC(=O)C1 (some centres unmarked)
2. O=C1/C=C/CCC2OC2C[C@H](c2ccccc2)OC(=O)c2c(O)cc(O)c(Cl)c2C1 (some centres unmarked)

[reply]
["14 µM", "38 µM"]

* * *

# system: EGF-R (Homo sapiens)
# Construct: host or cells: Sf9 insect cells (baculovirus)
# Sequence (P00533 25-1210): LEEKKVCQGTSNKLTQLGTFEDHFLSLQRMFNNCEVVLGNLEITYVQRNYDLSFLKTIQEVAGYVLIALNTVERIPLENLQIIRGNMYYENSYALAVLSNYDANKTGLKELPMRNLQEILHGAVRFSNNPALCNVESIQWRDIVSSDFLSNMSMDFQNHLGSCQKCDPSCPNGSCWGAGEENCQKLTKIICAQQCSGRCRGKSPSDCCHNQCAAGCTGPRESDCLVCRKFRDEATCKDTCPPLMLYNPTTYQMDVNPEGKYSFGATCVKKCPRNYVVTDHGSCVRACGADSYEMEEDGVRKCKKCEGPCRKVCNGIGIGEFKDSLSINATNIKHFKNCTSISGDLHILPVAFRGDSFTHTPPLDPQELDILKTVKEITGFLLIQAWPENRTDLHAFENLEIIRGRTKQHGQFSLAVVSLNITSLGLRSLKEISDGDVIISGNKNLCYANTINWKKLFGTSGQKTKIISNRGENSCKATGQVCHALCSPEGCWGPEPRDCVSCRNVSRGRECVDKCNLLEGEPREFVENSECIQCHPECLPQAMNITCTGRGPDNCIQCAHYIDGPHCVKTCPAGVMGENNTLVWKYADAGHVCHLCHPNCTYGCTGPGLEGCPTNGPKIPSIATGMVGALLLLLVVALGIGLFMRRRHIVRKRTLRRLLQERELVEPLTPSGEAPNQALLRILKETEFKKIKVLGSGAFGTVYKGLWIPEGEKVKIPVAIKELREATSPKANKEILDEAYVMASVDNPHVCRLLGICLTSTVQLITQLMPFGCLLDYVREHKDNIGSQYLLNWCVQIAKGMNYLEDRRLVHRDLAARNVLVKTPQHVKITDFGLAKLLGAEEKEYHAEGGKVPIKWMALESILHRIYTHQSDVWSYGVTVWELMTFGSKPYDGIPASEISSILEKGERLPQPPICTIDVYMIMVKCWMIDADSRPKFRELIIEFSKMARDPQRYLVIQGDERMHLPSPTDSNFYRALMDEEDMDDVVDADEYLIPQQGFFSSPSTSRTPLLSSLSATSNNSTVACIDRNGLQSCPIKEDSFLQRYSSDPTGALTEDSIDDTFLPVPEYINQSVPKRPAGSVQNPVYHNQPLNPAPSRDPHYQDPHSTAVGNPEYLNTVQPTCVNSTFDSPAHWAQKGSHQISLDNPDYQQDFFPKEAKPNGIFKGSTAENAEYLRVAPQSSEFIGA
# method-summary: Radiometric protein kinase assay, EGF-R
# Assay type: biochemical
# test-conditions: 1 μM ATP; read-out: Inhibitory activity (IC50:μM) EGF-R
Consider the following compounds; for each one, report its IC50.
Give bare numbers, in µM.

> print(dat)
                                   compound  value.measured
1  O=C1/C=C/CCC2OC2C[C@H](c2ccccc2)OC(=O)c2c(O)cc(O)c(Cl)c2C1 (stereo partly drawn) [A-5]              16
2  CCOCOc1cc2c(c(OCOCC)c1)C(=O)O[C@H](c1ccccc1)C/C=C/CC/C=C/C(=O)C2 [A-1]              33
3  O=C1/C=C/CCC2OC2C[C@@H](Cc2ccccc2)OC(=O)c2c(O)cc(O)cc2C1 (stereo partly drawn) [A-6]              32
4  O=C1Cc2c(Cl)c(O)cc(O)c2C(=O)O[C@H](c2ccccc2)C/C=C/CCC(Cl)C1 (stereo partly drawn) [A-3]              14
5  CC(C)[C@@H]1CC2OC2CC/C=C/C(=O)Cc2c(Cl)c(O)cc(O)c2C(=O)O1 (stereo partly drawn) [A-4]              22

Please find the next compound below.
[ask] Which IC50 value is on record for COC1CC/C=C/C[C@H](c2ccccc2)OC(=O)c2c(O)cc(O)c(Cl)c2CC(=O)C1 (stereo partly drawn) [A-2] ?
[reply] 10
